Test system: IST-MEL1 (Melanoma)
method.notes: combination Emax (second highest fraction inhibited in the dose matrix, 72 h); higher = more inhibition; extreme values may be limits of the assay
Each item that follows carries a reported combination Emax.
Respond with the number and no other words.

Worked cases, combination Emax given:
- compound: "NC1(C(=O)N[C@@H](CCO)c2ccc(Cl)cc2)CCN(c2ncnc3[nH]ccc23)CC1 [Capivasertib] + CC(C)n1c(=O)n(C)c2cnc3cc(F)c(-c4ccc(OCCCN5CCCCC5)nc4)cc3c21 [AZD1390] (first compound max 10 µM, 7x7, partner max 0.3 µM)"
  observed.value: 0.359
- compound: "C=CCn1c(=O)c2cnc(Nc3ccc(N4CCN(C)CC4)cc3)nc2n1-c1cccc(C(C)(C)O)n1 [AZD1775] + C1CN(CCC1(C(=O)N[C@@H](CCO)C2=CC=C(C=C2)Cl)N)C3=NC=NC4=C3C=CN4 [Capivasertib] (first compound max 3 µM, partner max 3 µM)"
  observed.value: 0.65
- compound: "CC1(C)CCC(CN2CCN(c3ccc(C(=O)NS(=O)(=O)c4ccc(NCC5CCOCC5)c([N+](=O)[O-])c4)c(Oc4cnc5[nH]ccc5c4)c3)CC2)=C(c2ccc(Cl)cc2)C1 [Venetoclax] + Cc1cc2ncnn2cc1Nc1ncc2c(n1)n(C1CCOCC1)c(=O)n2C [AZD7648] (first compound max 1 µM, 7x7, partner max 10 µM)"
  observed.value: 0.41
- compound: "Cc1cc2ncnn2cc1Nc1ncc2c(n1)n(C1CCOCC1)c(=O)n2C [AZD7648] + CCN(CCO)CCCOc1ccc2c(Nc3cc(CC(=O)Nc4cccc(F)c4)[nH]n3)ncnc2c1 [AZD2811] (first compound max 10 µM, 7x7, partner max 1 µM)"
  observed.value: 0.457
- compound: "C[C@@H](Nc1cc(F)cc(F)c1)c1cc(C(=O)N(C)C)cc2c(=O)cc(N3CCOCC3)oc12 [AZD8186] + C1CN(CCC1(C(=O)N[C@@H](CCO)C2=CC=C(C=C2)Cl)N)C3=NC=NC4=C3C=CN4 [AZD5363] (first compound max 10 µM, 7x7, partner max 10 µM)"
  observed.value: 0.408

The compound identified as CC1(C)CCC(CN2CCN(c3ccc(C(=O)NS(=O)(=O)c4ccc(NCC5CCOCC5)c([N+](=O)[O-])c4)c(Oc4cnc5[nH]ccc5c4)c3)CC2)=C(c2ccc(Cl)cc2)C1 [Venetoclax] + C=CCn1c(=O)c2cnc(Nc3ccc(N4CCN(C)CC4)cc3)nc2n1-c1cccc(C(C)(C)O)n1 [AZD1775] (first compound max 1 µM, partner max 1 µM) registered its combination Emax at 0.799

Per the record, CN(C)CCCOc1ccc(-c2ccc3ncc4c(c3c2)n(C2CCOCC2)c(=O)n4C)cn1 [AZD0156] + C=CCn1c(=O)c2cnc(Nc3ccc(N4CCN(C)CC4)cc3)nc2n1-c1cccc(C(C)(C)O)n1 [AZD1775] (first compound max 1 µM, partner max 1 µM) has combination Emax of 0.551

====

Test system: NB1 (Neuroblastoma);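 note: after 72 h of two-drug dosing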
method.notes: Bliss excess, mean over the matrix (fraction); higher = more synergy
Rule: Bliss excess of -0.01 or more gives true; anything lower gives false.

Record excerpt, results attached:
- compound: "CC1(C)CCC(CN2CCN(c3ccc(C(=O)NS(=O)(=O)c4ccc(NCC5CCOCC5)c([N+](=O)[O-])c4)c(Oc4cnc5[nH]ccc5c4)c3)CC2)=C(c2ccc(Cl)cc2)C1 [Venetoclax] + C1CN(CCC1(C(=O)N[C@@H](CCO)C2=CC=C(C=C2)Cl)N)C3=NC=NC4=C3C=CN4 [Capivasertib] (first compound max 1 µM, 7x7, partner max 3 µM)"
  assigned.label: "false"
- compound: "CN(C)CCCOc1ccc(-c2ccc3ncc4c(c3c2)n(C2CCOCC2)c(=O)n4C)cn1 [AZD0156] + C=CCn1c(=O)c2cnc(Nc3ccc(N4CCN(C)CC4)cc3)nc2n1-c1cccc(C(C)(C)O)n1 [AZD1775] (first compound max 1 µM, partner max 1 µM)"
  assigned.label: "false"
- compound: "C=CCn1c(=O)c2cnc(Nc3ccc(N4CCN(C)CC4)cc3)nc2n1-c1cccc(C(C)(C)O)n1 [AZD1775] + C[C@@H]1COCCN1C2=NC(=NC(=C2)C3(CC3)[S@](=N)(=O)C)C4=C5C=CNC5=NC=C4 [AZD6738] (first compound max 1 µM, partner max 10 µM)"
  assigned.label: "false"
- compound: "NC1(C(=O)N[C@@H](CCO)c2ccc(Cl)cc2)CCN(c2ncnc3[nH]ccc23)CC1 [Capivasertib] + Cn1cnc2c(F)c(Nc3ccc(Br)cc3Cl)c(C(=O)NOCCO)cc21 [Selumetinib] (first compound max 10 µM, 7x7, partner max 10 µM)"
  assigned.label: "true"
- compound: "CC1(C)CCC(CN2CCN(c3ccc(C(=O)NS(=O)(=O)c4ccc(NCC5CCOCC5)c([N+](=O)[O-])c4)c(Oc4cnc5[nH]ccc5c4)c3)CC2)=C(c2ccc(Cl)cc2)C1 [Venetoclax] + CCN(CCO)CCCOc1ccc2c(Nc3cc(CC(=O)Nc4cccc(F)c4)[nH]n3)ncnc2c1 [AZD2811] (first compound max 1 µM, 7x7, partner max 1 µM)"
  assigned.label: "false"
- compound: "Cc1cc2ncnn2cc1Nc1ncc2c(n1)n(C1CCOCC1)c(=O)n2C [AZD7648] + C=CCn1c(=O)c2cnc(Nc3ccc(N4CCN(C)CC4)cc3)nc2n1-c1cccc(C(C)(C)O)n1 [AZD1775] (first compound max 10 µM, partner max 1 µM)"
  assigned.label: "true"
- compound: "NC1(C(=O)N[C@@H](CCO)c2ccc(Cl)cc2)CCN(c2ncnc3[nH]ccc23)CC1 [Capivasertib] + CC(=O)c1c(C)c2cnc(Nc3ccc(N4CCNCC4)cn3)nc2n(C2CCCC2)c1=O [Palbociclib] (first compound max 10 µM, 7x7, partner max 10 µM)"
  assigned.label: "false"
- compound: "Cc1c2c(nn1C)CSCc1cc(n(C)n1)CSc1cc(c3ccccc3c1)OCCCc1c(C(=O)O)n(C)c3c-2c(Cl)ccc13 [AZD5991] + C[C@@H](Nc1cc(F)cc(F)c1)c1cc(C(=O)N(C)C)cc2c(=O)cc(N3CCOCC3)oc12 [AZD8186] (first compound max 1 µM, 7x7, partner max 3 µM)"
  assigned.label: "false"

Lookup: # check: Bliss excess of Cc1cc2ncnn2cc1Nc1ncc2c(n1)n(C1CCOCC1)c(=O)n2C [AZD7648] + C[C@@H]1COCCN1C2=NC(=NC(=C2)C3(CC3)[S@](=N)(=O)C)C4=C5C=CNC5=NC=C4 [AZD6738] (first compound max 10 µM, 7x7, partner max 10 µM) is greater than or equal to -0.01
Found: true

Lookup: Is Bliss excess for CC1(C)CCC(CN2CCN(c3ccc(C(=O)NS(=O)(=O)c4ccc(NCC5CCOCC5)c([N+](=O)[O-])c4)c(Oc4cnc5[nH]ccc5c4)c3)CC2)=C(c2ccc(Cl)cc2)C1 [Venetoclax] + C=CCn1c(=O)c2cnc(Nc3ccc(N4CCN(C)CC4)cc3)nc2n1-c1cccc(C(C)(C)O)n1 [AZD1775] (first compound max 1 µM, partner max 1 µM) at or above -0.01?
Found: false

Lookup: Decide: is the reported value of Bliss excess for C[C@@H](c1ccc2nccn2c1)n1nnc2ncc(-c3cnn(C)c3)nc21 [Savolitinib] + CC1(C)CCC(CN2CCN(c3ccc(C(=O)NS(=O)(=O)c4ccc(NCC5CCOCC5)c([N+](=O)[O-])c4)c(Oc4cnc5[nH]ccc5c4)c3)CC2)=C(c2ccc(Cl)cc2)C1 [Venetoclax] (first compound max 1 µM, 7x7, partner max 1 µM) equal to or greater than -0.01?
Found: false

Lookup: Hi, just wondering whether Cn1cnc2c(F)c(Nc3ccc(Br)cc3Cl)c(C(=O)NOCCO)cc21 [Selumetinib] + CCN(CCO)CCCOc1ccc2c(Nc3cc(CC(=O)Nc4cccc(F)c4)[nH]n3)ncnc2c1 [AZD2811] (first compound max 10 µM, 7x7, partner max 1 µM) shows Bliss excess of -0.01 or higher.
Found: false

Lookup: Decide: is the reported value of Bliss excess for CCc1c2c(nc3ccc(O)cc13)-c1cc3c(c(=O)n1C2)COC(=O)[C@]3(O)CC [SN-38] + CN(C)CCCOc1ccc(-c2ccc3ncc4c(c3c2)n(C2CCOCC2)c(=O)n4C)cn1 [AZD0156] (first compound max 0.3 µM, 7x7, partner max 1 µM) equal to or greater than -0.01?
Found: false

Lookup: Is reported Bliss excess greater than or equal to -0.01 here: CCN(CCO)CCCOc1ccc2c(Nc3cc(CC(=O)Nc4cccc(F)c4)[nH]n3)ncnc2c1 [AZD2811] + C=CCn1c(=O)c2cnc(Nc3ccc(N4CCN(C)CC4)cc3)nc2n1-c1cccc(C(C)(C)O)n1 [AZD1775] (first compound max 1 µM, partner max 1 µM)
Found: false
